- ASSAY: chemical genetic growth profiling, strain panel (AID 1159580);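 further: tested at 20 µM; growth read once vehicle control cultures reached saturation at 30 °C; 1 = growth at the plate median or of vehicle wells; lower values mean less growth of the strain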
- ASSAY_CONDITIONS: S. cerevisiae deletion strains, growth OD, locus YLL001W, strain dnm1, hits give low values
The whole screen tested about 5,500 compounds, of which about 2,000 (36%) were called active. Roughly 18% stayed inconclusive and do not appear here. Some of the results follow.
Catalogue of compounds with associated normalized growth
Number only, no unit.

Examples with answers:
{"columns": ["COMPOUND", "PARAMETER_MEASURED", "TEST_RESULT"],
 "data": [
  ["O=c1[nH]cnc2[nH]ncc12", "normalized growth", 1.01],
  ["C=C[C@H]1CN2CC[C@H]1C[C@@H]2[C@H](O)c1ccnc2ccccc12", "normalized growth", 0.989],
  ["CN(C)C(=O)Nc1ccc(Cl)c(Cl)c1", "normalized growth", 0.901],
  ["Cc1cc(=O)oc2c(O)c(O)ccc12", "normalized growth", 0.956]
]}

The measured normalized growth associated with `O=[N+]([O-])c1cccc2c(Br)[nH]nc12` reads 0.977

Kindly note the recorded normalized growth for `c1ccc2c(c1)CN1CCCC1=N2` , which is 0.988

The value of normalized growth measured for the compound `O=[N+]([O-])c1cccc2cn[nH]c12` turned out to be 0.999

Sure, the documented normalized growth for `CCC(=O)Nc1ccc(Cl)c(Cl)c1` is 0.99

normalized growth for NS(=O)(=O)c1cc2c(cc1Cl)NC(C1CC3C=CC1C3)NS2(=O)=O (configuration not stated) is 0.987

Memo: `O=c1cc(-c2ccc(O)cc2)oc2cc(O)cc(O)c12` , reported normalized growth: 1.03

Please fill in: normalized growth reported for `O=c1cc(-c2ccccc2)oc2c(O)c(O)ccc12` = 0.984

Recorded result, C[C@]12C=CC(=O)C=C1CCC1C3C[C@@H](O)[C@](O)(C(=O)CO)[C@@]3(C)C[C@H](O)[C@@]12F (some centres not stated) , normalized growth: 1.01

---

- ASSAY: chemical genetic growth profiling, strain panel (AID 1159580);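 further: tested at 20 µM; growth read once vehicle control cultures reached saturation at 30 °C; 1 = growth at the plate median or of vehicle wells; lower values mean less growth of the strain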
- ASSAY_CONDITIONS: S. cerevisiae deletion strains, growth OD, locus YDL108W, strain KIN28, hits give low values
Out of some 5,500 compounds screened, about 2,000 (36%) were called active. Another 18% or so got no clear call; they are omitted. The list shows a part of the results.
Overview of recorded normalized growth for various compounds
Please state the value as a number alone, without comment.

Solved cases (10 shown):
{"columns": ["COMPOUND", "normalized growth"],
 "data": [
  ["Cc1c(S(=O)(=O)c2ccc(Cl)cc2)csc1C(=O)NNc1cccc(Cl)c1", 0.973],
  ["O=C1CSC(c2ccc(C(F)(F)F)cc2)N1c1ccc(C(F)(F)F)cc1 (stereo unspecified)", 0.996],
  ["CC(C)(C)C(=O)/C(C#N)=C/c1c(Cl)cccc1Cl", 0.957],
  ["O=C1/C(=C/c2cccs2)COc2ccccc21", 0.901],
  ["N#Cc1ccc(NC(=O)Nc2cccc3ccccc23)cc1", 0.958],
  ["O=C(CCn1c(=O)oc2ccccc21)Sc1ccc(C(F)(F)F)cc1", 0.94],
  ["CC1(C)c2ccccc2N(CCC(N)=O)C12C=Cc1c(ccc3ccccc13)O2 (stereo unspecified)", 0.944],
  ["Cc1ccc(N2C(=O)CSC2c2ccc(Cl)c(Cl)c2)cc1Cl (stereo unspecified)", 0.98],
  ["COc1ccc(CC2CCC(=NOC(=O)c3ccc(C(C)(C)C)cc3)CC2)cc1 (stereo unspecified)", 0.984],
  ["O=C(Nc1ccc(Cl)cc1)O/N=C\\c1ccn(-c2ccccc2)n1", 0.941]
]}

Could you now look at the following compound, please?
COc1ccc(CC2CCC(=NOC(=O)c3c(Cl)cccc3Cl)CC2)cc1 (stereo unspecified) has a reported normalized growth of 1.04

From: PubChem BioAssay AID1159580
